Answer each item with its documented TGI.
Tested on: HOP-92 NSCLC
Assay: NCI tumour cell line growth inhibition, 48 h
Where a SMILES comes first, the peptide text is derived from it. The star is where a group is joined. Boc = CC(C)(C)OC(=O)*

// Input: `CSc1c(C(=O)Nc2ccc(Cl)cc2)c(N)nn1-c1ccccc1` . Output its TGI only.
> 100 µM

// Input: `CCOC(=O)/C(O)=C(/c1n[nH]c(=O)c2ccccc12)[N+](=O)[O-]` . Output its TGI only.
> 100 µM

// Input: `O=C1CCCCC/C1=C\c1ccc(F)cc1` . Output its TGI only.
> 100 µM

// Input: CC(=O)OC(/C=C1/C=CC(=O)O1)COC(=O)c1ccccc1 (configuration not stated) . Output its TGI only.
> 31.2 µM

// Input: `CCC(=O)Nc1ccc(N=Cc2cccc(Oc3ccccc3)c2)cc1` . Output its TGI only.
> 100 µM

// Input: C=CCCCC1CCCNC1=O (configuration not stated) . Output its TGI only.
> 100 µM

// Input: CC(NC(=O)C(NC(=O)OC(C)(C)C)C(C)C)C(=O)N1CCCC1C(=O)NCC(=O)NC(C(=O)NCC(=O)O)C(C)C (configuration not stated) (Boc-VAPGVG-OH; configuration not given here) . Output its TGI only.
> 100 µM

// Input: `O=C(/C=C(\O)c1ccc(Cl)cc1)C(=O)N=Nc1c(O)[nH]c2ccc(Br)cc12` . Output its TGI only.
> 100 µM

// Input: `CC1=NN(c2ccccc2)C(=O)C1=C1SCCS1` . Output its TGI only.
> 85.8 µM

// Input: `CC(C)(C)OC(=O)N(O)[C@@H]1C=C[C@H](n2cnc3c(N)ncnc32)C1` . Output its TGI only.
> 100 µM

// Input: CC(=O)OC1CCN(C(=O)c2ccccc2)CC1CC1(c2cc3ccccc3[nH]2)OCCO1 (configuration not stated) . Output its TGI only.
> 100 µM

// Input: `CCOC(=O)c1cc2c(ccc3cc(C(=O)OCC)[nH]c32)[nH]1` . Output its TGI only.
> 100 µM

// Input: CC(=O)Oc1ccc2c(c1)Oc1cc(C(C)=O)ccc1C21OC(=O)c2ccccc21 (configuration not stated) . Output its TGI only.
> 100 µM

// Input: Cc1ccc(S(=O)(=O)N2CC3OC(C)(C)OC3C2CO)cc1 (configuration not stated) . Output its TGI only.
> 100 µM

// Input: `Cc1ccc2c(c1)C(=O)/C(=C\c1ccccc1)CCS2(=O)=O` . Output its TGI only.
> 56.9 µM

// Input: `COc1ccc(CN2C[C@H]3[C@@H](CC(=O)O[C@H]3C)CC2=O)cc1` . Output its TGI only.
> 100 µM

// Input: `COc1ccc2c(c1)c(-c1ccc(-c3cn(S(=O)(=O)c4ccccc4)c4ccc(OC)cc34)s1)cn2S(=O)(=O)c1ccccc1` . Output its TGI only.
> 100 µM
